# Tested on: Salmonella enterica typhimurium
# PROCEDURE_TEXT: growth AUC normalised to DMSO control (fraction of control); higher = less growth inhibition, active = hit call of the paper
# DETAILS: 20 µM
Counter-ions that a name gives are not always drawn.
RECORDED_ENDPOINT: growth AUC normalised to DMSO control
Kindly provide the number alone.

{"COMPOUND": "CC1(C)O[C@@H]2C[C@H]3[C@@H]4CCC5=CC(=O)CC[C@]5(C)[C@@]4(F)[C@@H](O)C[C@]3(C)[C@]2(C(=O)CCl)O1 [Halcinonide]", "growth AUC normalised to DMSO control": 1}
{"COMPOUND": "COc1cccc2c1C(=O)c1c(O)c3c(c(O)c1C2=O)C[C@@](O)(C(=O)CO)C[C@@H]3O[C@H]1C[C@H](N)[C@H](O)[C@H](C)O1 [Doxorubicin hydrochloride]", "growth AUC normalised to DMSO control": 0.942}
{"COMPOUND": "CCCCOC(=O)c1ccc(N)cc1 [Butamben]", "growth AUC normalised to DMSO control": 0.994}

Kindly review the next compound as well.
Request: Report growth AUC normalised to DMSO control, nothing else, for this compound: COC(=O)Nc1nc2cc(C(=O)c3cccs3)ccc2[nH]1 [Nocodazole]
Result: 1.01

###

Quick list: growth AUC normalised to DMSO control per entry.
# System: Shigella flexneri
# PROCEDURE_TEXT: growth AUC normalised to DMSO control (fraction of control); higher = less growth inhibition, active = hit call of the paper
# DETAILS: 20 µM
Where a name gives a salt, the structure may show the parent alone.
Kindly provide the number alone.

{"MOLECULE": "CCC[C@@H]1C[C@@H](C(=O)N[C@@H]([C@H]2O[C@H](SC)[C@H](O)[C@@H](O)[C@H]2O)[C@H](C)Cl)N(C)C1 [Clindamycin hydrochloride]", "growth AUC normalised to DMSO control": 0.648}
{"MOLECULE": "N[C@@H](Cc1cc(I)c(Oc2cc(I)c(O)c(I)c2)c(I)c1)C(=O)O", "growth AUC normalised to DMSO control": 1.02}
{"MOLECULE": "CCCC(=O)Nc1ccc(OCC(O)CNC(C)C)c(C(C)=O)c1 (stereo not given) [Acebutolol hydrochloride]", "growth AUC normalised to DMSO control": 0.995}
{"MOLECULE": "CC[C@H](c1ccc(O)cc1)[C@@H](CC)c1ccc(O)cc1", "growth AUC normalised to DMSO control": 1}

Request: Param request: growth AUC normalised to DMSO control | system Shigella flexneri | item CC(C)(C)NCC(O)c1ccc(O)c(CO)c1 (stereo not given)
Result: 0.97

###

# Test system: P. vulgatus RND KO;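 further: active when median AUC fell below 0.1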
# PROCEDURE_TEXT: growth AUC normalised to DMSO control (median) (fraction of control); higher = less growth inhibition, active = hit call of the paper
# DETAILS: 20 µM
Structures can show the parent of a compound that is named as a salt.
// NOT MET strictly below 0.8 in growth AUC normalised to DMSO control; MET otherwise

{"COMPOUND": "COc1cc2nc(N3CCN(C(=O)c4ccco4)CC3)nc(N)c2cc1OC [Prazosin hydrochloride]", "CATEGORY": "MET"}
{"COMPOUND": "C[C@@H](O[C@H]1OCCN(Cc2n[nH]c(=O)[nH]2)[C@H]1c1ccc(F)cc1)c1cc(C(F)(F)F)cc(C(F)(F)F)c1 [Aprepitant]", "CATEGORY": "NOT MET"}
{"COMPOUND": "CO[C@H]1/C=C/O[C@@]2(C)Oc3c(C)c(O)c4c(O)c(c(/C=N/N5CCN(C)CC5)c(O)c4c3C2=O)NC(=O)/C(C)=C\\C=C\\[C@H](C)[C@H](O)[C@@H](C)[C@@H](O)[C@@H](C)[C@H](OC(C)=O)[C@@H]1C [Rifampicin]", "CATEGORY": "NOT MET"}
{"COMPOUND": "CCC[C@@H]1C[C@@H](C(=O)N[C@@H]([C@H]2O[C@H](SC)[C@H](OP(=O)(O)O)[C@@H](O)[C@H]2O)[C@H](C)Cl)N(C)C1 [Clindamycin Phosphate]", "CATEGORY": "MET"}

Request: Please indicate if the recorded growth AUC normalised to DMSO control for CC(=O)O[C@H]1C(=O)[C@@]2(C)[C@H]([C@H](OC(=O)c3ccccc3)[C@]3(O)C[C@H](OC(=O)[C@H](O)[C@@H](NC(=O)c4ccccc4)c4ccccc4)C(C)=C1C3(C)C)[C@]1(OC(C)=O)CO[C@@H]1C[C@@H]2O [Paclitaxel] meets or exceeds 0.8.
Result: MET
